Protocol description: yeast display, Sf9 membrane polyspecificity reagent, FACS + sequencing; frameworks hold sequencing errors
Quantity measured: polyreactivity (PSR sort gate)

Answered cases to consult:
QVQLVESGGGLVQAGGSLRLSCAASGRTLQIYVMGWYRQAPGKERELVASITGRGGSTYYADSVKGRFTISRDNAKNTVYLQMNSLKPEDTAVYYCARRYYRLDYWGQGTQVTVSS :: high polyreactivity
QVQLVESGGGLVQAGGSLRLSCAASGSNFIPNAMGWYRQAPGKERELVAAIRSGRSTYYADSVKGRITISRDNANNTVYLQMNSLQPEATAVYYCAADTYPYYYYLARYYYWGQCTQVTVSS :: low polyreactivity
QVQLVESGGGLVQAGGSLRLSCAASGTTFPKYAMGWYRQAPGKERELVAAITRGGRTYYADSVKGRFTISRDNANNTVYLQMNSLKPEDTAVYYCAVVGYARVGMYDYWGQGSQVTVSS :: high polyreactivity
QVQLVESGGGLVQAGGSLRISCAASGSISVRNVMGWYRHAPGKERELVATIRRTGGSTSYADSVKGRFTISRDNAKNTVYLQMNSLKPEDPAVYYCAAVGYTTYRRYDYWGQGTQVTVSS :: low polyreactivity
QVQLVESGGGLVQAGGSLRLSCAASGFIFVYNVMGWYRQAPGKERELVAAITSGGSTNYADSVKGRFTISRDNAKNTVFLKMNSLKPEDTAVYYCNADIYPDWIYLLYGYWGQGTQVTVSS :: low polyreactivity
QVQLVESAGGLVQAGGSLRLSCAASGSNFAIYDMGWYRQAPGKEREFVADISIVGRKKYADSVKGRFTISRDNAKNTVYLQMNSLKPEDTAVYYCTDQDSRDRKFYWGYTRGHWGQGTQVTVSS :: low polyreactivity
QVQIVESGAGLVQAGRSLRLSCAASGIIFHRYAMGWYRQAPGKERELVAAITWSGDSTYYADSVKGRFTISRDNAKNTVYLQMNSLKPEDTAVYYFWEYDYWGQGTQVTVSS :: low polyreactivity
QVQLVESGGGLVQAGGSLRLSCAASGRTFFWNAMGWYRQAPGKERELVAAITWSGGSTYYADSVKGRFTISRDNAKTTVYLQMNSLKPEDTAVYYCAAVVSDYVWRYEYWGQGTQVTVSS :: low polyreactivity

# get_value(readout='polyreactivity (PSR sort gate)', item= QVQLVESGGGLVQAGGSLRLSCAASGNTFDIYAMGWYRQAPGKERELVAAISRRGGSTYYADSVKGRFTISRDNAKNTVYLQMNSLKPEDTAVYYCNAKHKITHSSSDYWGQGTQVTVSS )
high polyreactivity

// polyreactivity (PSR sort gate) lookup, key: QVQLVESGGGLVQAGGSLRLSCADSGIIFNYYAMGWSRQAPGKEREFVASITSSGSSTYYADSVKGRFTITRDNAKNTVYLQMNSLKPEDTAVYYCAARYLWPKQGGGWGYYSCGQGTQVTVSS
high polyreactivity

Data request, read-out polyreactivity (PSR sort gate), for QVQLVDSGGGIVQAGGSLRLSCAASGSTFGRKVMGWYRQAPGKERELVAAISFRGGSTYYADSVKGRFTISRDNAKNTVYLQMNSLKPEDTAVYYCARDYPTDAYDYWGQGTQVTVSS
low polyreactivity

Need polyreactivity (PSR sort gate) of QVQLVESGGGLVQAGGSLRLSCAASGSTFYRNAMGWYRQAPGKERELVAGISYGGGSTYYADSVKGRFTISRDNAKNTVYLQMNSLKPEDTAVYYCYAVWVKRHYYYWGQGTQVTVSS , thanks.
low polyreactivity

Fill in: polyreactivity (PSR sort gate) of QVQLVESGGGLVQAGGSLRLSCAASGITLVRYAMGWYRQAPGKERELVASITSGASTNYADSVKGRFTISRDNAKNTVYLQMNSLKPEDTAVYYCAAGPPSGGWWGGWYDYWGQGTQVTVSS is ___
high polyreactivity

Which polyreactivity (PSR sort gate) is listed for QVQLVESGGGLVQAGGSLRLSCAASGSTFPRYAMGWYIPAPGNERELVAAISSGGSTYYADSVKGRFTISRDNAKNTVYLQMNSLKPEDTAVYYCNARRSRSRYDYWGQGTQVTVSS ?
high polyreactivity

Any idea what polyreactivity (PSR sort gate) was measured for QVQLVESGGRLDQAGGSLRLSCAASGSILSTYAMGWYRQPPVKERELVASISSNAGSTYYADSVKGRFTISLDNAKNTVSLQMNSLKPEDTAVYYCNKVYGGGTYDYWGQGTQVTVSS ?
low polyreactivity

What value of measured polyreactivity (PSR sort gate) is listed for QVQLVESGGGLVQAGGSLRLSCAASGRIFGGYTMGWYRQAPGKEREFVAAITSSGGSTYYADSVKGRLTISRDNAKNTVYLQMNSLKPEDTAVYYCAVADYYDDYDYWGQGTQVTVSS ?
low polyreactivity

Data origin: the nanobody polyreactivity screen of Harvey et al. (2022)
